Assay protocol: Solubility measurement in dilution solvent (PGMEA)
Assay type: physicochemical
Test parameters: PGMEA added to 0.5 g compound, stirred 100 rpm, one hour, 25° C.

Compound: Cc1cccc(C)c1Oc1c(Cl)c(Cl)c2c(c1Cl)/C1=N/c3c4c(Cl)c(Oc5c(C)cccc5C)c(Cl)c(Cl)c4c4[n]3[Zn][n]3/c(c5ccccc5/c3=N/C2=N1)=N\C1=NC(=N\4)/c2c(Cl)c(Cl)c(Cl)c(Cl)c21 [Synthesis Example 6]
Solubility: ○

Source of measurements: patent US11852971B2
